Target: hFASN enzyme (full length) (Homo sapiens, UniProt P49327)
Construct: 10 μL hFASN enzyme (full length, 300 ng, purified in house); made in house
Sequence (P49327 whole entry): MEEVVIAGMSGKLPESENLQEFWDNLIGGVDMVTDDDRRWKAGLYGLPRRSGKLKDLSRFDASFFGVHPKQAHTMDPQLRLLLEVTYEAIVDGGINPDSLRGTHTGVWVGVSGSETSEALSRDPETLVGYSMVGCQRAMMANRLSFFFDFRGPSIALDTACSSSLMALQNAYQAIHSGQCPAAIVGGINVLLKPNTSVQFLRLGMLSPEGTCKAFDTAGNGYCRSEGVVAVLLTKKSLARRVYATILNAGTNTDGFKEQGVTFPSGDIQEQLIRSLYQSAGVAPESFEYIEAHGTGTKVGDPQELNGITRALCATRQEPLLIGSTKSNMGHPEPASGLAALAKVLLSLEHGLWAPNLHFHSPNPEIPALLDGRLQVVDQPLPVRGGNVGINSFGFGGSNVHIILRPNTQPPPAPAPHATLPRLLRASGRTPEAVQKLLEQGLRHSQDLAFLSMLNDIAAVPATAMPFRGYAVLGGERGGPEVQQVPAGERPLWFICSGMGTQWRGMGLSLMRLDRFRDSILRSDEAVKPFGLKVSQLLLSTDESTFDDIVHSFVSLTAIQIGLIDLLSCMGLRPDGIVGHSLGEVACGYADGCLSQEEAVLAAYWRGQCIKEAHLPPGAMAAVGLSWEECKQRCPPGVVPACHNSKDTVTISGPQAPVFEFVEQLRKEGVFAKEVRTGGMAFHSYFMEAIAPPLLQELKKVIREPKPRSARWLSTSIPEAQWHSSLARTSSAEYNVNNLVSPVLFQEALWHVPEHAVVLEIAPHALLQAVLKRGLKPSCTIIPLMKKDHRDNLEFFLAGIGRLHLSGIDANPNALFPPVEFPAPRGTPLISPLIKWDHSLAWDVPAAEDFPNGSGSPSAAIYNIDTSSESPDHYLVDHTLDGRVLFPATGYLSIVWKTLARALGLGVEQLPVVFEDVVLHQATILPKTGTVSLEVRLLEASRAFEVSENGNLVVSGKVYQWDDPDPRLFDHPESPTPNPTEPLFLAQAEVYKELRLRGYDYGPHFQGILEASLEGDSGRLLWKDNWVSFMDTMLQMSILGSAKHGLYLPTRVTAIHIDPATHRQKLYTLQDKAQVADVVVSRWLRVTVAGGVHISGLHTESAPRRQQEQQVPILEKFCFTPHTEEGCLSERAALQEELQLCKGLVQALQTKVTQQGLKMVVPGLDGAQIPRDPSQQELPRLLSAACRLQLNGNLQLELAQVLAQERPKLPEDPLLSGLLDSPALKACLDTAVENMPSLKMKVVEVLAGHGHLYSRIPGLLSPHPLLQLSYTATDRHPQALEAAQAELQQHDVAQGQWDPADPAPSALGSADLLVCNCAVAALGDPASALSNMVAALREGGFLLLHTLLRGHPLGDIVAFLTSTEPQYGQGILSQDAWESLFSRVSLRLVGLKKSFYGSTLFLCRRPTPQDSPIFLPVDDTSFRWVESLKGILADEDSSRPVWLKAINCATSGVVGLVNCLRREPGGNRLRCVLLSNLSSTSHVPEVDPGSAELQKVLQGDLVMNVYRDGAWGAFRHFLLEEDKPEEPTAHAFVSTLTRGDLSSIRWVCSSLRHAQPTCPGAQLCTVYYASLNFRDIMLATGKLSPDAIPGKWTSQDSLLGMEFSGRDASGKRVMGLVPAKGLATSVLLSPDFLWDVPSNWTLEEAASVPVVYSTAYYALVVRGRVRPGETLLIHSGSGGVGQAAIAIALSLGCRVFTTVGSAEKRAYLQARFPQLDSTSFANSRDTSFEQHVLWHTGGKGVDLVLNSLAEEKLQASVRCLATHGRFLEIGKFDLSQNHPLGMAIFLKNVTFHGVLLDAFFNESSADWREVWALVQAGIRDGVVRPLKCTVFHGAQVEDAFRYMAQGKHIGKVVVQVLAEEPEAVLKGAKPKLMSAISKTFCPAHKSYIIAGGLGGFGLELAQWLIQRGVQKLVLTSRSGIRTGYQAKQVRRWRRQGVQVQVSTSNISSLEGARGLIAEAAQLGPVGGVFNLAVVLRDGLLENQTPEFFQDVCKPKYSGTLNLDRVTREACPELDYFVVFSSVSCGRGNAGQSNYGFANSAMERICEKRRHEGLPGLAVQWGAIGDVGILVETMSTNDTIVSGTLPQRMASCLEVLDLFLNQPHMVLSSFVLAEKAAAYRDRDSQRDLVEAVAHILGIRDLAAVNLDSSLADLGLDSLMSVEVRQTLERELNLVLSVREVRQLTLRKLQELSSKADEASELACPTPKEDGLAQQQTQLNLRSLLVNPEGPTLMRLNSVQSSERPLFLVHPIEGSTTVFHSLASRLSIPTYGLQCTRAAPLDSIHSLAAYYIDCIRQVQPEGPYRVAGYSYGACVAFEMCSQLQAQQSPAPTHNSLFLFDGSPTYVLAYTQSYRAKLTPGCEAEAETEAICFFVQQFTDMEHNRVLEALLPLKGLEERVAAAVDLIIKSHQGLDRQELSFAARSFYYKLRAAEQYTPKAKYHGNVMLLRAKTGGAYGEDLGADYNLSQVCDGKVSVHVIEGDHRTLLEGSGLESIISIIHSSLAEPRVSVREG
Test: Fatty Acid Synthase (FASN) inhibition scintillation proximity assay
Format: biochemical
Settings: read-out: Human FASN pIC50 (converted)
Protocol: In this assay, inhibition of FASN activity is measured using ^3H-acetyl-CoA and malonyl-CoA as substrates. ^3H-Acetyl CoA is converted to ^3H-palmitate through a series of reactions by the FASN protein, which contains 7 functional domains and carries out 7 enzymatic reactions to ultimately produce ^3H-palmitate. The assay principle is based upon the fact that ^3H-acetyl-CoA is hydrophilic and the end product, ^3H-palmitate is hydrophobic. […]
observable: IC50 (nM)

IC50 for Cn1cc(-c2ccc(-c3ccc(C4=NC5(CCOC5)C(=O)N4C[C@@H]4CCN(C(=O)C5CC5)C4)cc3)cc2)cn1 (stereo partly shown) is 269

P = Cn1ncc2ccc(-c3ccc(C4=NC5(CC5)C(=O)N4CC4CN(C(=O)C5CC5)C4)cc3)cc21
Q = O=C(C1CC1)N1CC[C@@H](CN2C(=O)C3(CC3)N=C2c2ccc(-c3nc4ccccc4s3)cc2)C1
R = Nc1cc2cc(-c3ccc(C4=NC5(CC5)C(=O)N4C[C@@H]4CCN(C(=O)C5CC5)C4)cc3)ccc2cn1
Order field: IC50 | Direction: descending (largest first) Lab note: final answer is the ordered label list. P, R, Q

I = O=C([C@H]1CCCO1)N1CC(CN2C(=O)C3(CCOCC3)N=C2c2ccc(-c3ccc4cccnc4c3)cc2)C1
II = CS(=O)(=O)N1CCC2(CC1)N=C(c1ccc(-c3ccc4[nH]ccc4c3)cc1)N(C[C@@H]1CCN(C(=O)C3CC3)C1)C2=O
Of I versus II , which is the one with smaller reported IC50? Bench note: the answer is the label of the chosen record. II
(II: 70.8 nM, I: 240 nM)

The origin of these recorded values is patent US10077261B2.
